Measurement target: human STING (HAQ) (Homo sapiens, UniProt Q86WV6, G230A/H232R/R293Q)
Sequence (Q86WV6 whole entry G230A/H232R/R293Q, looked up): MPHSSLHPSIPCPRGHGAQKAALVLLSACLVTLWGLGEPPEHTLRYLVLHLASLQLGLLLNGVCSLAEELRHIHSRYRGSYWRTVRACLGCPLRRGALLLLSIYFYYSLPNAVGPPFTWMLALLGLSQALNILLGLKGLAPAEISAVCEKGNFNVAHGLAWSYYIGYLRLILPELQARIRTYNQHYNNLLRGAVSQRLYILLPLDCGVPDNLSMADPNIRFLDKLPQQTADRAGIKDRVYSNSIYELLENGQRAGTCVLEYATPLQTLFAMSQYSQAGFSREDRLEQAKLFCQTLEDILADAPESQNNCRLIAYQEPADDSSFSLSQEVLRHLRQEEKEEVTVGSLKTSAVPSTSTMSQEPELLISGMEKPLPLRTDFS
Procedure summary: SPR (HAQ) 8° C.
Type: binding
Condition context: 50% occupancy as surrogate KD, read-out: SPR huSTING (HAQ) KD at 8° C.
Measured endpoint: Kd (µM)
Give the value in µM but do not write µM after it.

Worked examples, 3 compounds total:
COc1ncnc2sc(C(=O)O)c(COc3c(F)cc(C(N)=O)cc3F)c12 [Example 109] | 160
NC(=O)c1cc(F)c(OCc2c(C(=O)O)sc3cncc(Cl)c23)c(F)c1 [Example 171] | 4.87
COCc1cc(OCc2c(C(=O)O)sc3cccc(Cl)c23)ccc1C(N)=O [Example 113] | 52

Now turn to the next compound.
Kd in this record for COc1nccc2sc(C(=O)O)c(COc3c(F)cc(C(N)=O)cc3CO)c12 [Example 172] : 220

* * *

Measurement target: human STING (HAQ) (Homo sapiens, UniProt Q86WV6, G230A/H232R/R293Q)
Condition context: read-out: SPR (HAQ) KD; 25° C.
This listing pairs molecules with measured Kd.
Your answer is read as µM, so omit the unit and give the number.

Record excerpt, results attached:
NC(=O)c1c(F)cc(OCc2c(C(=O)O)sc3cccc(Cl)c23)cc1F | 10.9
COc1cc(C(N)=O)ccc1OCc1c(C(=O)O)sc2cccc(Cl)c12 | 22.1
NC(=O)c1ccc(OCc2c(C(=O)O)sc3cccc(C4CC4)c23)cc1 | 0.83
NC(=O)c1ccc(OCc2c(C(=O)O)sc3cc(Cl)cc(F)c23)cc1 | 34
NC(=O)c1ccc(OCc2c(C(=O)O)sc3cc(F)cc(F)c23)cc1 | 7.75

Let us examine a further case.
Record NC(=O)c1ccc(OCc2c(C(=O)O)sc3cccc(Br)c23)cc1 / human STING (HAQ) (Homo sapiens, UniProt Q86WV6, G230A/H232R/R293Q), Kd recorded as 0.755

* * *

Measurement target: huSTING (WT) (Homo sapiens (Human), UniProt Q86WV6, H232R)
Sequence (Q86WV6 whole entry H232R): as the sequence (Q86WV6 whole entry G230A/H232R/R293Q, looked up) above, with A230G, Q293R counted along it
Procedure summary: THP-1 reporter cell line assay, THP-1-Dual KI-hSTING-R232 cells
Format: cell-based
Condition context: read-out: Cellular EC50 huSTING (WT)
Measured endpoint: pEC50
Just so you know, pEC50 here is -log10 of the concentration in molar units; reply with that number alone.

CCOC(=O)c1sc2cccc(F)c2c1COc1ccc(C(N)=O)cc1F | 4.56

Value of measured pEC50 for the entry COC(=O)NCCOC(=O)c1sc2cccc(Cl)c2c1COc1c(F)cc(C(N)=O)cc1F : 6.53

* * *

This section presents molecules with their documented EC50 values.
Measurement target: huSTING (HAQ) (Homo sapiens (Human), UniProt Q86WV6, G230A/H232R/R293Q/R71H)
Sequence (Q86WV6 whole entry R71H/G230A/H232R/R293Q): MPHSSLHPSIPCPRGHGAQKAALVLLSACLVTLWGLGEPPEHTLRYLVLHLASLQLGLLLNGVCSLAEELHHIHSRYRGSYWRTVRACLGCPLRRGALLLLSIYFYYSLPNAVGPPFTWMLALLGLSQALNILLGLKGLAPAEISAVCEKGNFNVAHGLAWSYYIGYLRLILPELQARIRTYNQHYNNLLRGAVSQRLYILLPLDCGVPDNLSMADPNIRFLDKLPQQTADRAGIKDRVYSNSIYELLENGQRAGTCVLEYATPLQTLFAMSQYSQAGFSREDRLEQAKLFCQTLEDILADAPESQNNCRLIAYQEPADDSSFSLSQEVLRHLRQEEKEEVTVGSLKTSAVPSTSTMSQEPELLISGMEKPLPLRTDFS
Procedure summary: THP-1 reporter cell line assay, THP-1 STING Lucia ISG cells
Type: cell-based
Condition context: THP-1 STING Lucia ISG cells; 24 h; top concentration 50 μM; read-out: Cellular EC50 huSTING (HAQ)
Write the answer as a number in µM, unit excluded.

Here's what some known entries look like.
NC(=O)c1cc(F)c(OCc2c(C(=O)O)sc3c(F)ccc(F)c23)c(F)c1 [Example 80] | 38.6
NC(=O)c1ccc(OCc2c(C(=O)O)sc3cccc(C4CC4)c23)cc1 [Example 61] | 39.6

Data point: NC(=O)c1cc(F)c(OCc2c(C(=O)O)sc3cccc(Cl)c23)c(Br)c1 [Example 71] ; EC50 = 21.4

Kindly note the recorded EC50 for CCOC(=O)c1sc2c(Cl)cccc2c1COc1ccc(C(N)=O)cc1 [Example 11] , which is 16.2

Lookup result for CCOC(=O)c1sc2cccc(Cl)c2c1COc1ccc(C(N)=O)cc1OC [Example 29] ; measured EC50: 2.68

Cited source: patent US11613525B2
